Each recorded value in this set is attributed to the RNAGym collection of RNA variant scans (doi:10.7554/elife.80360).

B1: CPEB3 Ribozyme (parent)
chain: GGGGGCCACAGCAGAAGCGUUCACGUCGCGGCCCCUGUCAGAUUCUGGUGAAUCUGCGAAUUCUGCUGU

- Variants of: B1
- ASSAY_INFO: self-cleavage, relative activity (ratio to wild type); higher = more cleavage; co-transcriptional
MEASUREMENT_LABEL: self-cleavage
One number for each entry.

Solved cases below.
C6A U62G; 0.211
G14C A59G; 0.62
C24A G65A; 0.441
A23G C45A; 0.955

I have 4 variants here; please give me self-cleavage for each one.
1. C12A G19A
2. A16C G25C
3. G1A A60U
4. C12U G50U

Result:
[0.142, 0.0921, 0.107, 0.953]

I have 8 variants here; please give me self-cleavage for each one.
1. C63U C66G
2. C18A C66G
3. C33U G68U
4. G56A U61G
5. G1C G56U
6. C9A C45G
7. G1A C39A
8. C6G A23U

Result:
0.456
0.147
1.02
0.676
0.224
1.03
0.0683
0.526

I have 2 variants here; please give me self-cleavage for each one.
1. G4U
2. G37C U43G

Result:
[0.806, 0.202]

I have 6 variants here; please give me self-cleavage for each one.
1. A10G G30U
2. C54G U55A
3. U20C U44G
4. A13U U36C
5. G30C G37U
6. G4A G56A

Result:
[0.704, 0.745, 0.149, 0.647, 0.175, 0.604]
